# experimental-target: Human proteinase 3 (Homo sapiens, UniProt P24158)
# Construct: purchased Merk 539483
# Sequence (P24158 28-256): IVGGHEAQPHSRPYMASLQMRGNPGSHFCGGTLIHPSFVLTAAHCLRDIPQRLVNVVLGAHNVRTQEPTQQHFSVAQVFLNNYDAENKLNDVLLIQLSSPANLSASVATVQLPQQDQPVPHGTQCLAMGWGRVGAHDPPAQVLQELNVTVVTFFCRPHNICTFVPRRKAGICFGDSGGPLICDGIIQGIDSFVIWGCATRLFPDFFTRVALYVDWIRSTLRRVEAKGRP
# measurement-notes: Serine protease enzyme inhibition assay, proteinase 3
# Type: biochemical
# condition-set: mean ± S.E.M. (n ≥ 3)
Listed compounds paired with reported IC50
readout-type: IC50 (µM)

CC1(C)[C@@H](O)CC[C@]2(C)[C@H]3C=CC4=C5[C@]6(CC[C@](C)(OC6=O)[C@@]5(C)O)CC[C@@]4(C)[C@]3(C)CC[C@@H]12; 7.62
CC1=C(C)C2C3=CCC4[C@@]5(C)CC[C@H](O)C(C)(C)C5CC[C@@]4(C)[C@]3(C)CC[C@@]2(C(=O)O)CC1 (stereo partly drawn); 14.8
CC(C)(C)C(=O)Oc1ccc(S(=O)(=O)Nc2ccccc2C(=O)NCC(=O)O)cc1 [Elaspol, reference compound]; 0.56
CC1=C2C3=CCC4[C@@]5(C)CC[C@H](O)C(C)(C)C5CC[C@@]4(C)[C@]3(C)CC[C@@]2(C(=O)O)CC[C@H]1C (stereo partly drawn); 17.4

###

# key: entry, value: pIC50
# experimental-target: Human thrombin (Homo sapiens, UniProt P00734)
# measurement-notes: Serine protease enzyme inhibition assay, thrombin
pIC50: −log10 of the molar value.
readout-type: pIC50

CC1=C2C3=CCC4[C@@]5(C)CC[C@H](O)C(C)(C)C5CC[C@@]4(C)[C@]3(C)CC[C@@]2(C(=O)O)CC[C@H]1C (stereo partly shown); 4.60
C[C@H]1[C@H](C)CC[C@]2(C(=O)O)CC[C@]3(C)C(=CC[C@@H]4[C@@]5(C)CC[C@H](O)C(C)(C)[C@@H]5CC[C@]43C)[C@H]12; 5.20
CC1=C(C)C2C3=CCC4[C@@]5(C)CC[C@H](O)C(C)(C)C5CC[C@@]4(C)[C@]3(C)CC[C@@]2(C(=O)O)CC1 (stereo partly shown); 4.93
NCCc1ccc(S(=O)(=O)F)cc1 [AEBSF, reference compound]; 3.60

###

Target or system Bovine chymotrypsin (Bos taurus): recorded pIC50 listed per item.
pIC50: −log10 of the molar value.
readout-type: pIC50

CC1(C)[C@@H](O)CC[C@]2(C)[C@H]3C=CC4=C5[C@]6(CC[C@](C)(OC6=O)[C@@]5(C)O)CC[C@@]4(C)[C@]3(C)CC[C@@H]12 [Compound 11-1]; 5.09
CC1=C2C3=CCC4[C@@]5(C)CC[C@H](O)C(C)(C)C5CC[C@@]4(C)[C@]3(C)CC[C@@]2(C(=O)O)CC[C@H]1C (stereo partly drawn) [Compound 15-1, randialic acid B]; 4.77

###

# experimental-target: Human thrombin (Homo sapiens, UniProt P00734)
# measurement-notes: Serine protease enzyme inhibition assay, thrombin
readout-type: IC50

O=C(/C=C/c1ccc(O)c(O)c1)O[C@@H]1C[C@](O)(C(=O)O)C[C@@H](O)[C@H]1O; > 30 µM
O=C(C=Cc1ccc(O)c(O)c1)OC1CC(O)(C(=O)O)CC(OC(=O)C=Cc2ccc(O)c(O)c2)C1O (stereo not drawn); > 30 µM
N#CC=C1C=CC(O)CC1OC1OC(CO)C(O)C(O)C1O (stereo not drawn); > 30 µM
